# Tested System: CathepsinG, from human neutrophils (Homo sapiens)
# Assay Protocol: Enzymatic assay, cathepsin G
# Applied Conditions: Cathepsin G IC50
pIC50: −log10 of the molar value. Where a SMILES comes first, the peptide text is derived from it.
Would you please tag the item Y when its pIC50 is 7 or above, and N when it is below?

Solved cases below.
Is reported pIC50 greater than or equal to 7 here: CC[C@H](C)[C@@H]1NC(=O)[C@@H]2CCCN2C(=O)[C@@H]2CCCN2C(=O)[C@H](CC(=O)O)NC(=O)[C@H](CO)NC(=O)[C@H](CCCCN)NC(=O)[C@H]([C@@H](C)O)NC(=O)[C@@H]2CSSC[C@H](NC1=O)C(=O)N[C@@H]([C@@H](C)O)C(=O)N1CCC[C@@H]1C(=O)N1CCC[C@H]1C(=O)N[C@@H](CCc1ccccc1)C(=O)N2 [Ex. 28] (HELM PEPTIDE1{[O=C([C@H](CCc1ccccc1)N[*:1])[*:2]].C.T.K.S.D.P.P.I.C.T.[dP].P}$PEPTIDE1,PEPTIDE1,2:R3-10:R3|PEPTIDE1,PEPTIDE1,1:R1-13:R2$$$V2.0)
Y

Item CCCC[C@@H]1NC(=O)[C@@H]2CCCN2C(=O)[C@H]2CCCN2C(=O)[C@H](CC2CCCCC2)NC(=O)[C@@H]2CSSC[C@H](NC1=O)C(=O)N[C@@H]([C@@H](C)O)C(=O)N[C@@H](C)C(=O)N[C@@H](CO)C(=O)N[C@@H]([C@@H](C)CC)C(=O)N1CCC[C@H]1C(=O)N1CCC[C@H]1C(=O)N[C@@H](CCC(N)=O)C(=O)N2 [Ex. 97] (HELM PEPTIDE1{[Nle].C.T.A.S.I.P.P.Q.C.[Cha].[dP].P}$PEPTIDE1,PEPTIDE1,2:R3-10:R3|PEPTIDE1,PEPTIDE1,1:R1-13:R2$$$V2.0) with pIC50 of 7 or above?
N

Form field: pIC50 at least 7? Entry: CC[C@H](C)[C@@H]1NC(=O)[C@@H]2CCCN2C(=O)[C@H]2CCCN2C(=O)[C@H](CCCNC(=N)N)NC(=O)[C@@H]2CSSC[C@H](NC1=O)C(=O)N[C@@H]([C@@H](C)O)C(=O)N[C@@H](CCCCN)C(=O)N[C@@H](CO)C(=O)N[C@@H](Cc1ccc(O)cc1)C(=O)N1CCC[C@H]1C(=O)N1CCC[C@H]1C(=O)N[C@@H]([C@@H](C)CC)C(=O)N2 [Ex. 183] (HELM PEPTIDE1{I.C.T.K.S.Y.P.P.I.C.R.[dP].P}$PEPTIDE1,PEPTIDE1,2:R3-10:R3|PEPTIDE1,PEPTIDE1,1:R1-13:R2$$$V2.0)
N

# check: pIC50 of CC(C)C[C@@H]1NC(=O)[C@@H]2CCCN2C(=O)[C@H]2CCCN2C(=O)[C@H](CCCNC(=N)N)NC(=O)[C@@H]2CSSC[C@H](NC1=O)C(=O)N[C@@H]([C@@H](C)O)C(=O)N[C@@H](CCCCN)C(=O)N[C@@H](CO)C(=O)N[C@@H](CC(C)C)C(=O)N1CCC[C@H]1C(=O)N1CCC[C@H]1C(=O)N[C@@H](CCCCN)C(=O)N2 [Ex. 191] (HELM PEPTIDE1{L.C.T.K.S.L.P.P.K.C.R.[dP].P}$PEPTIDE1,PEPTIDE1,2:R3-10:R3|PEPTIDE1,PEPTIDE1,1:R1-13:R2$$$V2.0) is greater than or equal to 7
N

Assess whether reported pIC50 for CCCC[C@@H]1NC(=O)[C@@H]2CCCN2C(=O)[C@H]2CCCN2C(=O)[C@H](CCCNC(=N)N)NC(=O)[C@@H]2CSSC[C@H](NC1=O)C(=O)N[C@@H]([C@@H](C)O)C(=O)N[C@@H](CCCCN)C(=O)N[C@@H](CO)C(=O)N[C@@H](CC(C)C)C(=O)N1CCC[C@H]1C(=O)N1CCC[C@H]1C(=O)N[C@@H](CCCCN)C(=O)N2 [Ex. 192] (HELM PEPTIDE1{[Nle].C.T.K.S.L.P.P.K.C.R.[dP].P}$PEPTIDE1,PEPTIDE1,2:R3-10:R3|PEPTIDE1,PEPTIDE1,1:R1-13:R2$$$V2.0) sits at 7 or higher.
N

Hi, just wondering whether CC[C@H](C)[C@@H]1NC(=O)[C@@H]2CCCN2C(=O)[C@@H]2CCCN2C(=O)[C@H](CC(=O)O)NC(=O)[C@H](CO)NC(=O)[C@H](CCCCN)NC(=O)[C@H]([C@@H](C)O)NC(=O)[C@@H]2CSSC[C@H](NC1=O)C(=O)N[C@@H](CC(N)=O)C(=O)N1CCC[C@@H]1C(=O)N1CCC[C@H]1C(=O)N[C@@H](Cc1ccccc1)C(=O)N2 [Ex. 3] (HELM PEPTIDE1{F.C.T.K.S.D.P.P.I.C.N.[dP].P}$PEPTIDE1,PEPTIDE1,2:R3-10:R3|PEPTIDE1,PEPTIDE1,1:R1-13:R2$$$V2.0) shows pIC50 of 7 or higher.
Y

Proceed to the following item.
Is pIC50 for CC[C@H](C)[C@@H]1NC(=O)[C@@H]2CCCN2C(=O)[C@@H]2CCCN2C(=O)[C@H](CC(=O)O)NC(=O)[C@H](CO)NC(=O)[C@H](CCCCN)NC(=O)[C@H]([C@@H](C)O)NC(=O)[C@@H]2CSSC[C@H](NC1=O)C(=O)N[C@@H](Cc1ccc(O)cc1)C(=O)N1CCC[C@@H]1C(=O)N1CCC[C@H]1C(=O)N[C@@H](CCc1ccccc1)C(=O)N2 [Ex. 30] (HELM PEPTIDE1{[O=C([C@H](CCc1ccccc1)N[*:1])[*:2]].C.T.K.S.D.P.P.I.C.Y.[dP].P}$PEPTIDE1,PEPTIDE1,2:R3-10:R3|PEPTIDE1,PEPTIDE1,1:R1-13:R2$$$V2.0) at or above 7?
Y

---

# Tested System: CathepsinG, from human neutrophils (Homo sapiens, UniProt P08311)
# Sequence (P08311 21-244): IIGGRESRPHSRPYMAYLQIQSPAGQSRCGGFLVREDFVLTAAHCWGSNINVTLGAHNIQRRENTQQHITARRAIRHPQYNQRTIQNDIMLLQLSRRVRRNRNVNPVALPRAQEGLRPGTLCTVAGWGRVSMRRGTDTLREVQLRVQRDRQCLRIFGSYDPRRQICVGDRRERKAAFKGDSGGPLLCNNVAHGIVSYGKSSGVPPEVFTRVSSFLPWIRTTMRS
# Assay Protocol: Enzymatic assay, cathepsin G
# Applied Conditions: Cathepsin G IC50
Where a SMILES comes first, the peptide text is derived from it.
Measured Metric: IC50 (nM)
Numbers only, in nM.

Recorded IC50 of CC[C@H](C)[C@@H]1NC(=O)[C@@H]2CCCN2C(=O)[C@H]2CCCN2C(=O)[C@H](CCCNC(=N)N)NC(=O)[C@@H]2CSSC[C@H](NC1=O)C(=O)N[C@@H]([C@@H](C)O)C(=O)N[C@@H](CCCCN)C(=O)N[C@@H](CO)C(=O)N[C@@H](CC(C)C)C(=O)N1CCC[C@H]1C(=O)N1CCC[C@H]1C(=O)N[C@@H](CCC(N)=O)C(=O)N2 [Ex. 188] (HELM PEPTIDE1{I.C.T.K.S.L.P.P.Q.C.R.[dP].P}$PEPTIDE1,PEPTIDE1,2:R3-10:R3|PEPTIDE1,PEPTIDE1,1:R1-13:R2$$$V2.0) , please.
105

Next up:
Tell me the measured IC50 of CC[C@H](C)[C@@H]1NC(=O)[C@@H]2CCCN2C(=O)[C@@H]2CCCN2C(=O)[C@H](CC(=O)O)NC(=O)[C@H](CO)NC(=O)[C@H](CCCCN)NC(=O)[C@H]([C@@H](C)O)NC(=O)[C@@H]2CSSC[C@H](NC1=O)C(=O)N[C@@H](CC(N)=O)C(=O)N1CCC[C@@H]1C(=O)N1CCC[C@H]1C(=O)N[C@@H](Cc1ccccc1Cl)C(=O)N2 [Ex. 45] (HELM PEPTIDE1{[O=C([C@H](Cc1ccccc1Cl)N[*:1])[*:2]].C.T.K.S.D.P.P.I.C.N.[dP].P}$PEPTIDE1,PEPTIDE1,2:R3-10:R3|PEPTIDE1,PEPTIDE1,1:R1-13:R2$$$V2.0) , please.
47

---

# Tested System: Trypsin, from human pancreas (Homo sapiens)
Where a SMILES comes first, the peptide text is derived from it.
Measured Metric: pIC50
Answers are plain numbers, as −log10 of the molar value.

Consider the worked cases shown below.
# query: pIC50 of entry CC(C)C[C@@H]1NC(=O)[C@@H]2CCCN2C(=O)[C@H]2CCCN2C(=O)[C@H](CCCNC(=N)N)NC(=O)[C@@H]2CSSC[C@H](NC1=O)C(=O)N[C@@H]([C@@H](C)O)C(=O)N[C@@H](CCCCN)C(=O)N[C@@H](CO)C(=O)N[C@@H](CC(C)C)C(=O)N1CCC[C@H]1C(=O)N1CCC[C@H]1C(=O)N[C@@H](CCCCN)C(=O)N2 [Ex. 191] (HELM PEPTIDE1{L.C.T.K.S.L.P.P.K.C.R.[dP].P}$PEPTIDE1,PEPTIDE1,2:R3-10:R3|PEPTIDE1,PEPTIDE1,1:R1-13:R2$$$V2.0)
7.18

Could you tell me which pIC50 is on file for CC[C@H](C)[C@@H]1NC(=O)[C@@H]2CCCN2C(=O)[C@H]2CCCN2C(=O)[C@H](CCCNC(=N)N)NC(=O)[C@@H]2CSSC[C@H](NC1=O)C(=O)N[C@@H]([C@@H](C)O)C(=O)N[C@@H](CCCCN)C(=O)N[C@@H](CO)C(=O)N[C@@H](CC(C)C)C(=O)N1CCC[C@H]1C(=O)N1CCC[C@H]1C(=O)N[C@@H](Cc1c[nH]cn1)C(=O)N2 [Ex. 187] (HELM PEPTIDE1{I.C.T.K.S.L.P.P.H.C.R.[dP].P}$PEPTIDE1,PEPTIDE1,2:R3-10:R3|PEPTIDE1,PEPTIDE1,1:R1-13:R2$$$V2.0) ?
7.41

Query: pIC50; subject: CC(C)C[C@@H]1NC(=O)[C@H](CO)NC(=O)[C@H](CCCCN)NC(=O)[C@H]([C@@H](C)O)NC(=O)[C@@H]2CSSC[C@H](NC(=O)[C@H](CCCCN)NC(=O)[C@@H]3CCCN3C(=O)[C@@H]3CCCN3C1=O)C(=O)N[C@@H](CCCNC(=N)N)C(=O)N1CCC[C@@H]1C(=O)N1CCC[C@H]1C(=O)N[C@@H](Cc1ccc(O)cc1)C(=O)N2 [Ex. 194] (HELM PEPTIDE1{Y.C.T.K.S.L.P.P.K.C.R.[dP].P}$PEPTIDE1,PEPTIDE1,2:R3-10:R3|PEPTIDE1,PEPTIDE1,1:R1-13:R2$$$V2.0)
6.37

Look at this molecule and give its reported pIC50. CC(C)C[C@@H]1NC(=O)[C@H](CO)NC(=O)[C@H](CCCCN)NC(=O)[C@H]([C@@H](C)O)NC(=O)[C@@H]2CSSC[C@H](NC(=O)[C@H](CCCCN)NC(=O)[C@@H]3CCCN3C(=O)[C@@H]3CCCN3C1=O)C(=O)N[C@@H](CCCNC(=N)N)C(=O)N1CCC[C@@H]1C(=O)N1CCC[C@H]1C(=O)N[C@@H](CC1CCCCC1)C(=O)N2 [Ex. 193] (HELM PEPTIDE1{[Cha].C.T.K.S.L.P.P.K.C.R.[dP].P}$PEPTIDE1,PEPTIDE1,2:R3-10:R3|PEPTIDE1,PEPTIDE1,1:R1-13:R2$$$V2.0)
7.46

Would you mind telling me what pIC50 value was observed for CC[C@H](C)[C@@H]1NC(=O)[C@@H]2CCCN2C(=O)[C@H]2CCCN2C(=O)[C@H](CCCNC(=N)N)NC(=O)[C@@H]2CSSC[C@H](NC1=O)C(=O)N[C@@H]([C@@H](C)O)C(=O)N[C@@H](CCCCN)C(=O)N[C@@H](CO)C(=O)N[C@@H](CC(C)C)C(=O)N1CCC[C@H]1C(=O)N1CCC[C@H]1C(=O)N[C@@H](CCC(N)=O)C(=O)N2 [Ex. 188] (HELM PEPTIDE1{I.C.T.K.S.L.P.P.Q.C.R.[dP].P}$PEPTIDE1,PEPTIDE1,2:R3-10:R3|PEPTIDE1,PEPTIDE1,1:R1-13:R2$$$V2.0) ?
7.47

Fill in pIC50 for each of the 3 molecules listed.
1. CC[C@H](C)[C@@H]1NC(=O)[C@@H]2CCCN2C(=O)[C@H]2CCCN2C(=O)[C@H](CCCNC(=N)N)NC(=O)[C@@H]2CSSC[C@H](NC1=O)C(=O)N[C@@H]([C@@H](C)O)C(=O)N[C@@H](CCCCN)C(=O)N[C@@H](CO)C(=O)N[C@@H](CC(C)C)C(=O)N1CCC[C@H]1C(=O)N1CCC[C@H]1C(=O)N[C@@H](CCCNC(=N)N)C(=O)N2 [Ex. 185] (HELM PEPTIDE1{I.C.T.K.S.L.P.P.R.C.R.[dP].P}$PEPTIDE1,PEPTIDE1,2:R3-10:R3|PEPTIDE1,PEPTIDE1,1:R1-13:R2$$$V2.0)
2. CC[C@H](C)[C@@H]1NC(=O)[C@@H]2CCCN2C(=O)[C@H]2CCCN2C(=O)[C@H](CCCNC(=N)N)NC(=O)[C@@H]2CSSC[C@H](NC1=O)C(=O)N[C@@H]([C@@H](C)O)C(=O)N[C@@H](CCCCN)C(=O)N[C@@H](CO)C(=O)N[C@@H](Cc1ccc(O)cc1)C(=O)N1CCC[C@H]1C(=O)N1CCC[C@H]1C(=O)N[C@@H]([C@@H](C)CC)C(=O)N2 [Ex. 183] (HELM PEPTIDE1{I.C.T.K.S.Y.P.P.I.C.R.[dP].P}$PEPTIDE1,PEPTIDE1,2:R3-10:R3|PEPTIDE1,PEPTIDE1,1:R1-13:R2$$$V2.0)
3. CC[C@H](C)[C@@H]1NC(=O)[C@@H]2CCCN2C(=O)[C@@H]2CCCN2C(=O)[C@H](CC(C)C)NC(=O)[C@H](CO)NC(=O)[C@H](CCCCN)NC(=O)[C@H]([C@@H](C)O)NC(=O)[C@@H]2CSSC[C@H](NC1=O)C(=O)N[C@@H](CCCNC(=N)N)C(=O)N1CCC[C@@H]1C(=O)N1CCC[C@H]1C(=O)N[C@@H](Cc1ccccc1)C(=O)N2 [Ex. 184] (HELM PEPTIDE1{F.C.T.K.S.L.P.P.I.C.R.[dP].P}$PEPTIDE1,PEPTIDE1,2:R3-10:R3|PEPTIDE1,PEPTIDE1,1:R1-13:R2$$$V2.0)

1. 6.90
2. 6.84
3. 7.32
